# experiment: total protein half-life in vivo (active degradation + dilution); higher = more stable protein
# condition.label: E. coli NCM3722 delta-clpP; growth: N-lim chemostat; doubling time 6 h
experimental.readout: total protein half-life in vivo (h)
One number for each entry, in h.

[
  {
    "input.sequence": "MIISAASDYRAAAQRILPPFLFHYMDGGAYSEYTLRRNVEDLSEVALRQRILKNMSDLSLETTLFNEKLSMPVALAPVGLCGMYARRGEVQAAKAADAHGIPFTLSTVSVCPIEEVAPAIKRPMWFQLYVLRDRGFMRNALERAKAAGCSTLVFTVDMPTPGARYRDAHSGMSGPNAAMRRYLQAVTHPQWAWDVGLNGRPHDLGNISAYLGKPTGLEDYIGWLGNNFDPSISWKDLEWIRDFWDGPMVIKGILDPEDARDAVRFGADGIVVSNHGGRQLDGVLSSARALPAIADAVKGDIAILADSGIRNGLDVVRMIALGADTVLLGRAFLYALATAGQAGVANLLNLIEKEMKVAMTLTGAKSISEITQDSLVQGLGKELPAALAPMAKGNAA",
    "experimental.readout": "total protein half-life in vivo",
    "result": 5.99
  }
]

Go through the items and report each one's total protein half-life in vivo.
1. MSFMVSEEVTVKEGGPRMIVTGYSSGMVECRWYDGYGVKREAFHETELVPGEGSRSAEEV
2. MNNTPRYPQRVRNDLRFRELTVLRVERISAGFQRIVLGGEALDGFTSRGFDDHSKLFFPQPDAHFVPPTVTEEGIVWPEGPRPPSRDYTPLYDELRHELAIDFFIHDGGVASGWAMQAQPGDKLTVAGPRGSLVVPEDYAYQLYVCDESGMPALRRRLETLSKLAVKPQVSALVSVRDNACQDYLAHLDGFNIEWLAHDEQAVDARLAQMQIPADDYFIWITGEGKVVKNLSRRFEAEQYDPQRVRAAAYWHAK
3. MMDNMQTEAQPTRTRILNAAREIFSENGFHSASMKAICKSCAISPGTLYHHFISKEALIQAIILQDQERALARFREPIEGIHFVDYMVESIVSLTHEAFGQRALVVEIMAEGMRNPQVAAMLKNKHMTITEFVAQRMRDAQQKGEISPDINTAMTSRLLLDLTYGVLADIEAEDLAREASFAQGLRAMIGGILTAS [P0ACT6]
4. MERVYRTDLKLLRYFLAVAEELHFGRAAARLNMSQPPLSIHIKELENQLGTQLFIRHSRSVVLTHAGKILMEESRRLLVNANNVLARIEQIGRGEAGRIELGVVGTAMWGRMRPVMRRFLRENPNVDVLFREKMPAMQMALLERRELDAGIWRMATEPPTGFTSLRLHESAFLVAMPEEHHLSSFSTVPLEALRDEYFVTMPPVYTDWDFLQRVCQQVGFSPVVIREVNEPQTVLAMVSMGIGITLIADSYAQMNWPGVIFRPLKQRIPADLYIVYETQQVTPAMVKLLAALTQ

0.609
3.77
5.2
3.26

Lab note: each sequence below needs its total protein half-life in vivo filled in.
1. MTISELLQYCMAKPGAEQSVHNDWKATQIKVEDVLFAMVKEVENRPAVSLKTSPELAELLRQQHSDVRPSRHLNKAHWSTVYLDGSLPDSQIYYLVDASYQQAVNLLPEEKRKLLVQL [P0AF50]
2. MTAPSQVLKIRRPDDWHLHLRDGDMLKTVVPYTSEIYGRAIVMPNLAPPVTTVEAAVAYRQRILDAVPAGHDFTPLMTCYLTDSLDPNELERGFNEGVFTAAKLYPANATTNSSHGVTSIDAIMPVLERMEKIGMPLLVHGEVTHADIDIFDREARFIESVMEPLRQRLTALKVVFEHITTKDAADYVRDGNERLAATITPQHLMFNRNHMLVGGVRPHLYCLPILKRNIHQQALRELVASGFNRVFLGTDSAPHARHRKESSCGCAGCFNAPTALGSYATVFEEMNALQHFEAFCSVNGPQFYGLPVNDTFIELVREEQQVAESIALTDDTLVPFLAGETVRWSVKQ
3. MTGMTNVTKLASEPSGQEFLVFTLGDEEYGIDILKVQEIRGYDQVTRIANTPAFIKGVTNLRGVIVPIVDLRIKFSQVDVDYNDNTVVIVLNLGQRVVGIVVDGVSDVLSLTAEQIRPAPEFAVTLSTEYLTGLGALGDRMLILVNIEKLLNSEEMALLDSAASEVA [P0A964]

1. 5.39
2. 5.17
3. 4.56

# map each sequence to its total protein half-life in vivo
1. MSEQLTDQVLVERVQKGDQKAFNLLVVRYQHKVASLVSRYVPSGDVPDVVQEAFIKAYRALDSFRGDSAFYTWLYRIAVNTAKNYLVAQGRRPPSSDVDAIEAENFESGGALKEISNPENLMLSEELRQIVFRTIESLPEDLRMAITLRELDGLSYEEIAAIMDCPVGTVRSRIFRAREAIDNKVQPLIRR [P0AGB6]
2. MDQAGIIRDLLIWLEGHLDQPLSLDNVAAKAGYSKWHLQRMFKDVTGHAIGAYIRARRLSKSAVALRLTARPILDIALQYRFDSQQTFTRAFKKQFAQTPALYRRSPEWSAFGIRPPLRLGEFTMPEHKFVTLEDTPLIGVTQSYSCSLEQISDFRHEMRYQFWHDFLGNAPTIPPVLYGLNETRPSQDKDDEQEVFYTTALAQDQADGYVLTGHPVMLQGGEYVMFTYEGLGTGVQEFILTVYGTCMPMLNLTRRKGQDIERYYPAEDAKAGDRPINLRCELLIPIRR [P0ACI0]

1. 6.37
2. 5.39

Please give total protein half-life in vivo for each item listed below.
1. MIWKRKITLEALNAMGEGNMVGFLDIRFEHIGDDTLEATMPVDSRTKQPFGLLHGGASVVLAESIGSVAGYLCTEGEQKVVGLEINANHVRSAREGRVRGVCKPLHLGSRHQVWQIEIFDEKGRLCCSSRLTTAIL
2. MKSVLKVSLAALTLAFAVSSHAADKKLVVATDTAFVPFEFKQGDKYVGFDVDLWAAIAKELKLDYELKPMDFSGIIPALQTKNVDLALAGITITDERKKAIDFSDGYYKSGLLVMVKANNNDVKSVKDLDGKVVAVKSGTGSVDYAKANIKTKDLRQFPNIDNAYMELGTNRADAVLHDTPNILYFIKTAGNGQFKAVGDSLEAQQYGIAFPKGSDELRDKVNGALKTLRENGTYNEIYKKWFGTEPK [P0AEQ3]

1. 3.39
2. 6.03
